Ref: patent US9714235B2

- System: NCI-N87 tumor cells
- Experiment description: N87 tumor in vivo study
- Design: species or system Female BALB/cA-nude mice
- Measurement parameters: 5 mg/kg p.o. once daily, Day 0 (baseline)
Listing of entries alongside the reported Average Tumor Volume Day 0.
Enter your answer as a number in mm^3; do not include the unit.

Take a look at these entries with their results.
Molecule	Measured metric	Result
COC[C@H]1CCN1C/C=C/C(=O)Nc1cc2c(Nc3ccc(F)c(Cl)c3)ncnc2cc1OCC1CC1 [Example 9]	Average Tumor Volume Day 0	124.1
COC[C@H]1CCN1C/C=C/C(=O)Nc1cc2c(Nc3ccc(F)c(Cl)c3)ncnc2cc1OC [Example 2]	Average Tumor Volume Day 0	117.6
CCOc1cc2ncnc(Nc3ccc(F)c(Cl)c3)c2cc1NC(=O)/C=C/CN1CC[C@@H]1COC [Example 4]	Average Tumor Volume Day 0	109.1

--- query ---
Q: Kindly indicate its recorded Average Tumor Volume Day 0. Item: COCCOc1cc2ncnc(Nc3ccc(F)c(Cl)c3)c2cc1NC(=O)/C=C/CN1CC[C@@H]1COC [Example 6]
A: 116.9

---

// reported Average Tumor Volume Day 21 for each item listed
- Test system: NCI-N87 tumor cells
- Experiment description: N87 tumor in vivo study
- Design: species or system Female BALB/cA-nude mice
- Measurement parameters: 5 mg/kg p.o. once daily for 21 days, Day 21
- Protocol: Female BALB/cA-nude mice were implanted with NCI-N87 tumor cells. Tumor measurements were recorded twice a week. Randomize animals to groups (Day 0) when tumors reached an average size of 60-150 mm^3. Group size was 6 mice. Test compound was administered p.o. once daily for 21 days. Tumor inhibition values were determined at Day 21. Tumor volume (V) was calculated as follow: V=½×a×b, where a and b are the length and width of the tumor respectively. […]
Report only the number, with the unit mm^3 understood.

Compound structure	System under test	Measured metric	Result
COC[C@H]1CCN1C/C=C/C(=O)Nc1cc2c(Nc3ccc(F)c(Cl)c3)ncnc2cc1OC	NCI-N87 tumor cells	Average Tumor Volume Day 21	54.3
COC[C@H]1CCN1C/C=C/C(=O)Nc1cc2c(Nc3ccc(F)c(Cl)c3)ncnc2cc1OCC1CC1	NCI-N87 tumor cells	Average Tumor Volume Day 21	349.3
COCCOc1cc2ncnc(Nc3ccc(F)c(Cl)c3)c2cc1NC(=O)/C=C/CN1CC[C@@H]1COC	NCI-N87 tumor cells	Average Tumor Volume Day 21	176.3

Turning to the following compound.
Q: Return Average Tumor Volume Day 21 (reported value) for this compound: `CCOc1cc2ncnc(Nc3ccc(F)c(Cl)c3)c2cc1NC(=O)/C=C/CN1CC[C@@H]1COC`
A: 49.7

---

- System: NCI-N87 tumor cells
- Experiment description: N87 tumor in vivo study
- Parameters: species or system Female BALB/cA-nude mice
- Measurement parameters: 5 mg/kg p.o. once daily for 21 days, Day 21
Let's look at some compounds and their measured Inhibition rate.
The reply should be a number in %, with the unit left off.

Compound	Inhibition rate, %
COCCOc1cc2ncnc(Nc3ccc(F)c(Cl)c3)c2cc1NC(=O)/C=C/CN1CC[C@@H]1COC [Example 6]	95

Q: Fill in reported Inhibition rate for this entry: COC[C@H]1CCN1C/C=C/C(=O)Nc1cc2c(Nc3ccc(F)c(Cl)c3)ncnc2cc1OC [Example 2]
A: 154

Q: For the compound CCOc1cc2ncnc(Nc3ccc(F)c(Cl)c3)c2cc1NC(=O)/C=C/CN1CC[C@@H]1COC [Example 4] , give its reported Inhibition rate.
A: 154

Q: Give the reported Inhibition rate for this compound. COC[C@H]1CCN1C/C=C/C(=O)Nc1cc2c(Nc3ccc(F)c(Cl)c3)ncnc2cc1OCC1CC1 [Example 9]
A: 81
